Biological target: T1, GST-KIAA0973 PDZ domain 1 (Homo sapiens (Human)), Q9Y2H9
T1 chain: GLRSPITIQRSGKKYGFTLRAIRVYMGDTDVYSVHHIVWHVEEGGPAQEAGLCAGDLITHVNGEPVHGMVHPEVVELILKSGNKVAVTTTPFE
Test: G' assay; further: key of the grades not given here
The entries below are paired with their reported Classification.
# value in A450 class; strip the unit string

- Binder: "NSYVRDDAIFIKAIVDLTGL (modifications not checked) [TRAF2]"
  Classification [A450 class]: 1

QUERY: Please report the recorded Classification for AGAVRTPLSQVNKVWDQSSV (modifications not checked) [CITRON protein] .
RESULT: 5

QUERY: What Classification value was documented for this binder, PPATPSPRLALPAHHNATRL (modifications not checked) [Na+/Pi cotransporter 2] ?
RESULT: 2

QUERY: Field request: Classification | item: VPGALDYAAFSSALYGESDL (modifications not checked) [a-actinin 2]
RESULT: 2
